These measurements were taken from patent US20140377219A1.

Test system: HIV-1 SF2
protocol.text: Multi-cycle neutralization assay in MT-2 cells
cond: read-out: IC50 (μM) ± S.D., inhibitory activity on infection; SF2, subtype B, MT-2, R5X4, laboratory strain
Examples of compounds with documented IC50 follow.
Numbers only here, please. The scale is µM.

Cc1ccc(NC(=O)C(=O)NC(c2nc(C)c(CO)s2)C2CCCCN2)cc1F.Cl (stereo not shown): 38.7

Problem: What does the data say about its IC50? Entry: Cc1nc(C(NC(=O)C(=O)Nc2ccc(Cl)c(F)c2)C2CCCCN2)sc1CCO.Cl (stereo not shown)
Solution: 15.8

Problem: Then what about the compound Cc1nc(C(NC(=O)C(=O)Nc2ccc(Cl)cc2)C2CCCCN2)sc1CO.Cl (stereo not shown) ?
Solution: 5.7

###

Test system: TZM-bl cells
protocol.text: Cytotoxicity in TZM-bl cells (XTT)
Format: cell-based
cond: TZM-bl cells, XTT, 3 days; read-out: TZM-bl cells CC50 (μM ± SD)
test.readout: CC50

Cc1ccc(NC(=O)C(=O)NC(c2nc(C)c(CCO)s2)C2CCCCN2)cc1F.Cl (stereo not drawn): > 85 µM
Cc1ccc(NC(=O)C(=O)NC(c2nc(C)c(CO)s2)C2CCCCN2)cc1F.Cl (stereo not drawn): > 88 µM

As a next step, examine the compound that follows.
Problem: Short answer please: CC50, TZM-bl cells, entry Cc1nc(C(NC(=O)C(=O)Nc2ccc(Cl)cc2)C2CCCCN2)sc1CCO.O=CO (stereo not drawn)
Solution: 32.8 µM

###

Test system: MT-2 cells
protocol.text: Cytotoxicity in MT-2 cells (XTT)
Type: cell-based
cond: MT-2 cells, XTT, four days; read-out: MT-2 Cells CC50
Examples of compounds with documented CC50 follow.

The following compounds have reported results that may help.
Cc1ccc(NC(=O)C(=O)NC(c2nc(C)c(CO)s2)C2CCCCN2)cc1F.Cl (stereo not shown): > 88 µM
Cc1nc(C(NC(=O)C(=O)Nc2ccc(F)c(F)c2)C2CCCCN2)sc1CCO.Cl.Cl (stereo not shown): > 78.2 µM
Cc1ccc(NC(=O)C(=O)NC(c2nc(C)c(CO)s2)C2CCCCN2)c(F)c1 (stereo not shown): > 109 µM
Cc1nc(C(NC(=O)C(=O)Nc2ccc(Cl)cc2)C2CCCCN2)sc1CCO.O=CO (stereo not shown): > 62 µM
Cc1nc(C(NC(=O)C(=O)NC2CCCCCC2)C2CCCCN2)sc1CCO (stereo not shown): ~60 µM

Problem: What does the data say about its CC50? Entry: Cc1nc(C(NC(=O)C(=O)Nc2ccc(F)c(F)c2)C2CCCCN2)sc1CO.Cl (stereo not shown)
Solution: > 87 µM

Problem: Then what about the compound `COC(=O)[C@@H]1C[C@@H](NC(=O)C(=O)Nc2ccc(Cl)cc2)[C@H](c2ccccc2)N1` ?
Solution: > 99.6 µM

###

Examples of compounds with documented IC50 follow.
System: laboratory-adapted HIV-1 IIIB strain
cond: read-out: MT-2 Cells IC50 (μM ± SD); multi-cycle assay, MT-2 cells, HIV-1 IIIB

The following compounds have reported results that may help.
CN1CCN(C(=O)CNC(=O)CCC(=O)Nc2ccc(Cl)cc2)CC1: ~48 µM
COC(=O)[C@@H]1C[C@@H](NC(=O)C(=O)Nc2ccc(Cl)cc2)[C@H](c2ccccc2)N1: > 24.9 µM
Cc1nc(C(NC(=O)C(=O)Nc2ccc(F)cc2F)C2CCCCN2)sc1CO (centres unmarked): ~110 µM

Problem: What does the data say about its IC50? Entry: `Cc1nccn1CCCNC(=O)CCC(=O)Nc1ccc(Cl)cc1`
Solution: > 38 µM

Problem: Then what about the compound Cc1nc(C(NC(=O)CCC(=O)Nc2ccc(Cl)cc2)C2CCCN2)sc1CO (centres unmarked) ?
Solution: > 42 µM
